Overview of reported MIC ATB in combination across a group of compounds:
# Test system: Morganella morganii (MMO) isolates
# ASSAY_SUMMARY: MIC of compounds alone and combined with antibacterials, broth microdilution (CLSI)
# Format: cell-based
# CONDITION_SUMMARY: MMO UFR144; AF1 @ 4 μg/mL

Completed entries (count: 3):
COCC1=C(C(=O)O)N2C(=O)[C@@H](NC(=O)/C(=N\OC)c3csc(N)n3)[C@H]2SC1 = 2 µg/mL
CO/N=C(\C(=O)N[C@@H]1C(=O)N2C(C(=O)O)=C(COC(N)=O)CS[C@H]12)c1ccco1 = 32 µg/mL
C=CC1=C(C(=O)O)N2C(=O)[C@@H](NC(=O)/C(=N\OCC(=O)O)c3csc(N)n3)[C@H]2SC1 = 2 µg/mL

Moving on to another compound below.
Any idea what its MIC ATB in combination is? The compound is C=CC1=C(C(=O)O)N2C(=O)[C@@H](NC(=O)/C(=N\O)c3csc(N)n3)[C@H]2SC1
4 µg/mL

====

Below, each of the compounds is paired with its reported MIC ATB in combination value.
# System: Enterobacter cloacae (ECL) isolates
# ASSAY_SUMMARY: MIC of compounds alone and combined with antibacterials, broth microdilution (CLSI)
# Type: cell-based
# CONDITION_SUMMARY: strain ECL UFR197; antibacterial combined with AF1 @ 4 μg/mL
Numbers only here, please. The scale is µg/mL.

Below, each entry is followed by its recorded MIC ATB in combination result.
CC1(C)S[C@@H]2[C@H](NC(=O)[C@H](N)c3ccc(O)cc3)C(=O)N2[C@H]1C(=O)O = 256
C=CC1=C(C(=O)O)N2C(=O)[C@@H](NC(=O)/C(=N\OCC(=O)O)c3csc(N)n3)[C@H]2SC1 = 16
C=CC1=C(C(=O)O)N2C(=O)[C@@H](NC(=O)/C(=N\O)c3csc(N)n3)[C@H]2SC1 = 8
CC(C)(O/N=C(\C(=O)N[C@@H]1C(=O)N2C(C(=O)[O-])=C(C[n+]3ccccc3)CS[C@H]12)c1csc(N)n1)C(=O)O = 1

So what does the record say about MIC ATB in combination for CO/N=C(\C(=O)N[C@@H]1C(=O)N2C(C(=O)O)=C(COC(N)=O)CS[C@H]12)c1ccco1 ?
64

So what's the measured MIC ATB in combination for this one? COCC1=C(C(=O)O)N2C(=O)[C@@H](NC(=O)/C(=N\OC)c3csc(N)n3)[C@H]2SC1
8

====

# System: Enterobacter aerogenes (EAE) isolates
# ASSAY_SUMMARY: MIC of compounds alone and combined with antibacterials, broth microdilution (CLSI)
# Format: cell-based
# CONDITION_SUMMARY: EAE UFR202; AF1 @ 4 μg/mL
OBSERVED_PROPERTY: MIC ATB in combination (µg/mL)
Provide only the numeric value, understood in µg/mL.

Some solved cases for reference:
CO/N=C(\C(=O)N[C@@H]1C(=O)N2C(C(=O)O)=C(COC(N)=O)CS[C@H]12)c1ccco1 = 32
CC(C)(O/N=C(\C(=O)N[C@@H]1C(=O)N2C(C(=O)[O-])=C(C[n+]3ccccc3)CS[C@H]12)c1csc(N)n1)C(=O)O = 2
COCC1=C(C(=O)O)N2C(=O)[C@@H](NC(=O)/C(=N\OC)c3csc(N)n3)[C@H]2SC1 = 2
CC1(C)S[C@@H]2[C@H](NC(=O)[C@H](N)c3ccc(O)cc3)C(=O)N2[C@H]1C(=O)O = 64
C=CC1=C(C(=O)O)N2C(=O)[C@@H](NC(=O)/C(=N\OCC(=O)O)c3csc(N)n3)[C@H]2SC1 = 16

Turning now to a further record.
Bench note: what MIC ATB in combination did C=CC1=C(C(=O)O)N2C(=O)[C@@H](NC(=O)/C(=N\O)c3csc(N)n3)[C@H]2SC1 show?
4
